Tested on: P388 leukemia ip, CD2F1 mice, survival T/C
Experiment description: NCI In Vivo Anticancer Drug Screen. Data for tumor model P388 Leukemia (intraperitoneal) in CD2F1 (CDF1) mice
Condition description: endpoint: median survival time; dose: 12.5 mg/kg/injection; schedule: Q01DX009 (ip); vehicle: other; higher = longer survival
Toxic doses and inconclusive results are not listed.
Measurement label: T/C

molecular_string=COc1cc2cccc(O)c2cc1OC measurement_label=T/C result="90 % of control"
molecular_string=c1ccc(-n2nc3c(c2-c2ccncc2)CCCc2ccccc2-3)cc1 measurement_label=T/C result="96 % of control"
molecular_string=CCCC1(CCC)c2ccccc2C(Cl)(CCl)c2ccccc21 measurement_label=T/C result="103 % of control"
